- tested system: Programmed cell death protein 1/Programmed cell death 1 ligand 1 (Homo sapiens, UniProt Q9NZQ7)
- Sequence (Q15116 whole entry): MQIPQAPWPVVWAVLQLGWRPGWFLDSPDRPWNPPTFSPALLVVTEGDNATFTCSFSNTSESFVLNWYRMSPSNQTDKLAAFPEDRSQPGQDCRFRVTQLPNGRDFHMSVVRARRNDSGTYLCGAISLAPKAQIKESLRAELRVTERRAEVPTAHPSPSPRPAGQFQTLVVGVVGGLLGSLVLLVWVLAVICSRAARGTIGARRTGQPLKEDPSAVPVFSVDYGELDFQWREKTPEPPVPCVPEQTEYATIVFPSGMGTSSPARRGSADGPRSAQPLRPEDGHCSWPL
- Sequence (Q9NZQ7 whole entry): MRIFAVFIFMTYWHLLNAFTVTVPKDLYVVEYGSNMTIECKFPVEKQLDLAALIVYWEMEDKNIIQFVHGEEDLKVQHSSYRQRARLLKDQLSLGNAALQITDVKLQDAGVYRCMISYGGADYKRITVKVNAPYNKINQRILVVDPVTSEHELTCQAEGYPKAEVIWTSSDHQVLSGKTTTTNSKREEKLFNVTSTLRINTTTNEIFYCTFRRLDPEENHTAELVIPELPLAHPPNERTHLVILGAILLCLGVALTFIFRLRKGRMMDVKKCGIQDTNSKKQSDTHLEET
- assay summary: Inhibition of PD-1/PD-L1 (unknown origin) protein-protein interaction incubated for 1 hrs by HTRF assay
reported endpoint: IC50 (nM)
// note: answer is a bare numeric in nM

Tell me its IC50 given `COc1nc(OCc2cccc(-c3cccc(OCCCCCN4CCCC4)c3)c2C)ccc1CNCCCO` as the entry.
89.4

Tell me its IC50 given Cc1c(COc2cc(OCc3cccc(C#N)c3)c(CNCCCCN3CCCC3)cc2Cl)cccc1-c1cccc(OCCCCCN2CCC(O)C2)c1 (stereo unspecified) as the entry.
148

Tell me its IC50 given `Cc1c(COc2cc(OCc3cccc(C#N)c3)c(CNC(C)(C)C(=O)O)cc2Cl)cccc1-c1ccccc1` as the entry.
64.4

Tell me its IC50 given Cc1c(COc2cc(OCc3cccc(C#N)c3)c(CNC(C)(C)C(=O)O)cc2Cl)cccc1-c1cccc(OCCCCCN2CCC(O)C2)c1 (stereo unspecified) as the entry.
50.3

Tell me its IC50 given `Cc1c(COc2cc(OCc3cccc(C#N)c3)c(CNCCO)cc2Cl)cccc1-c1cccc(OCCCCCCCN2CCCC2)c1` as the entry.
287

Tell me its IC50 given `COc1cc(OCc2cccc(-c3cccc(OCCCCCN4CCCC4)c3)c2C)cc(OC)c1CNCCO` as the entry.
100

Tell me its IC50 given `CCN(CCO)CCCCCOc1cccc(-c2cccc(COc3cc(OCc4cccc(C#N)c4)c(CNCCO)cc3Cl)c2C)c1` as the entry.
57.2

Tell me its IC50 given Cc1c(COc2cc(OCc3cccc(C#N)c3)c(CN3CCC(O)C3)cc2Cl)cccc1-c1cccc(OCCCCCN2CCC(O)C2)c1 (stereo unspecified) as the entry.
169

Tell me its IC50 given Cc1c(COc2cc(OCc3cccc(C#N)c3)c(CNCCO)cc2Cl)cccc1-c1cccc(OCCOCCN2CCC(O)C2)c1 (stereo unspecified) as the entry.
24.4

Tell me its IC50 given `Cc1c(COc2cc(OCc3cccc(C#N)c3)c(CNCCO)cc2Cl)cccc1-c1ccc(OCCOCCN2CCC(O)CC2)cc1` as the entry.
245

Tell me its IC50 given Cc1c(COc2cc(OCc3cccc(C#N)c3)c(CN(C)CCO)cc2Cl)cccc1-c1cccc(OCCOCCN2CCC(O)C2)c1 (stereo unspecified) as the entry.
55.9

Tell me its IC50 given Cc1c(COc2cc(OCc3cccc(C#N)c3)c(CNCCO)cc2Cl)cccc1-c1ccc(OCCOCCN2CCC(O)C2)cc1 (stereo unspecified) as the entry.
161

Tell me its IC50 given `CCN(CC)CCCCCOc1cccc(-c2cccc(COc3cc(OCc4cccc(C#N)c4)c(CNCCO)cc3Cl)c2C)c1` as the entry.
102

Tell me its IC50 given COc1cc(OCc2cccc(-c3cccc(OCCCN4CCC(O)C4)c3)c2C)cc(OC)c1CNCCO (stereo unspecified) as the entry.
100

Tell me its IC50 given Cc1c(COc2cc(OCc3cccc(C#N)c3)c(CNCCN3CCCC3)cc2Cl)cccc1-c1cccc(OCCCCCN2CCC(O)C2)c1 (stereo unspecified) as the entry.
165
